Biological target: Active Human ERK2 (hERK2) (Homo sapiens (Human), UniProt P28482)
Sequence (P28482 whole entry): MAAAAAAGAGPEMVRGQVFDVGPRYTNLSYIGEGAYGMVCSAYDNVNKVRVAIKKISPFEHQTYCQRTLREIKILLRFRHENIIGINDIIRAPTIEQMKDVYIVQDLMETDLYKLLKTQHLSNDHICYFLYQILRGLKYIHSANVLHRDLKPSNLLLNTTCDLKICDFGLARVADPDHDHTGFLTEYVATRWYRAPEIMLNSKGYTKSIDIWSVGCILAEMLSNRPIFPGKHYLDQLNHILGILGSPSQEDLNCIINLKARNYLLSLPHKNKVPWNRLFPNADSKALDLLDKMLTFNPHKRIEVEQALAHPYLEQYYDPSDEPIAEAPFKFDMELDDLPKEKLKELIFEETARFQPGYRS
Assay: Active Human ERK2 (hERK2) Activity Assay (IMAP-FP)
Assay type: biochemical
Conditions: phosphorylated active hERK2, 30 μM ATP; average; read-out: ERK 2 Human average IC50
Description: Assays Active Human ERK2 (hERK2) Activity Assay: Activated ERK2 activity was determined in an IMAP-FP assay (Molecular Devices). […] The final reaction in each well of 25 μL consists of 0.5 nM hERK2, 900 nM unlabeled peptide, 80 nM labeled-peptide, and 30 μM ATP. […] Plates were read on EnVision reader after 60 minutes binding equilibration using Fluorescence Polarization protocol (Perkin Elmer).
readout.kind: IC50 (nM)

[I] CN1C[C@H](NC(=O)Nc2cc3[nH]nc(-c4ccc(F)cc4)c3cn2)[C@@H](c2ccccc2)C1
[II] C[C@@H](NC(=O)Nc1cc2[nH]nc(-c3cnn(CC(C)(C)O)c3)c2cn1)c1ccccc1
[III] CO[C@@H](C)CNC(=O)Nc1cc2[nH]nc(-c3ccc(F)cc3)c2cn1
Input line: From the records above, write out the order of decreasing IC50. Please express your ranking as an ordered list of the labels.
Output line: I, III, II
(I: 42.1 nM, III: 0.873 nM, II: 0.535 nM)

[A] CC(C)Oc1ccc(-c2n[nH]c3cc(NC(=O)N[C@H](C)c4ccccc4)ncc23)cn1
[B] Cc1cc(-c2n[nH]c3cc(NC(=O)N[C@H]4CCOC4=O)ncc23)ccn1
Input line: # return whichever of A and B has the smaller IC50 Indicate your choice by writing its label.
Output line: A
(A: 3.63 nM, B: 253 nM)

###

target: Active Human ERK2 (hERK2) (Homo sapiens (Human), UniProt P28482); test: Active Human ERK2 (hERK2) Activity Assay (IMAP-FP); format: biochemical; details: phosphorylated active hERK2, 30 μM ATP; average; read-out: ERK 2 Human average IC50
pIC50: −log10 of the molar value.
readout.kind: pIC50

Examples from the recorded data:
compound: COc1cccc(F)c1CN1CCC[C@@H](NC(=O)Nc2cc3[nH]nc(-c4ccc(F)cc4)c3cn2)C1 [Example 654]
pIC50: 8.66
--
compound: Cc1cc(-c2n[nH]c3cc(NC(=O)NC[C@@H]4COCCO4)ncc23)ccn1 [Example 550]
pIC50: 8.61
--
compound: CO[C@@H]1CN(C)C[C@H]1NC(=O)Nc1cc2[nH]nc(-c3ccc(F)cc3)c2cn1 [Example 318]
pIC50: 7.52

[A] Cc1cc(-c2n[nH]c3cc(NC(=O)NCc4cccnn4)ncc23)ccn1 [Example 446]
[B] C[C@@H](NC(=O)Nc1cc2[nH]nc(CC#N)c2cn1)c1ccccc1 [Example 559]
Input line: Which of the two gives a bigger number for pIC50: A or B ? To answer, give the label that identifies your chosen option.
Output line: A
(A: 8.48, B: 7.84)

###

biological target: Active Human ERK2 (hERK2) (Homo sapiens (Human)); experiment: Active Human ERK2 (hERK2) Activity Assay (IMAP-FP); format: biochemical; details: phosphorylated active hERK2, 30 μM ATP; average; read-out: ERK 2 Human average IC50
readout.kind: IC50 (nM)

[a] NC(=O)Nc1cc2[nH]nc(-c3ccc(F)cc3)c2cn1 [Example 34]
[b] COC[C@H](NC(=O)Nc1cc2[nH]nc(-c3ccnc(C)c3)c2cn1)c1ccccn1 [Example 415]
[c] CNC(=O)c1cc(F)ccc1CNC(=O)Nc1cc2[nH]nc(-c3ccnc(C)c3)c2cn1 [Example 518]
[d] Cc1cc(-c2n[nH]c3cc(NC(=O)NC4CCOc5cc(F)ccc54)ncc23)ccn1 (stereo not shown) [Example 286]
Input line: # desc sort on IC50 across 4 compounds Answer format: the labels, in the requested order.
Output line: b, d, c, a
(b: 20 nM, d: 9.59 nM, c: 5.18 nM, a: 1.68 nM)

###

molecular target: Active Human ERK2 (hERK2) (Homo sapiens (Human), UniProt P28482); assay: Active Human ERK2 (hERK2) Activity Assay (IMAP-FP); format: biochemical; conditions: phosphorylated active hERK2, 30 μM ATP; average; read-out: ERK 2 Human average IC50
readout.kind: IC50 (nM)

Some entries whose results are on file:
compound: Cc1cc(-c2n[nH]c3cc(NC(=O)N[C@@H](CN(C)C)c4ccccc4)ncc23)ccn1 [Example 481]
readout.kind: IC50
assay.value: 10.8
//
compound: Cc1cc(-c2n[nH]c3cc(NC(=O)N[C@H]4CN(C)C[C@@H]4c4ccc(F)nc4)ncc23)ccn1 [Example 179]
readout.kind: IC50
assay.value: 1.45
//
compound: COc1cccc(F)c1CN1CCC[C@@H](NC(=O)Nc2cc3[nH]nc(-c4ccc5nn(C)cc5c4)c3cn2)C1 [Example 662]
readout.kind: IC50
assay.value: 0.929

[I] CC[C@H](CO)NC(=O)Nc1cc2[nH]nc(-c3ccnc(C)c3)c2cn1 [Example 204]
[II] Cc1cc(-c2n[nH]c3cc(NC(=O)NC(C)c4ncccc4C)ncc23)ccn1 (centres unmarked) [Example 349]
Input line: Look at I and II . Which one has the lower recorded IC50 number? Return value: the label identifying the chosen record.
Output line: II
(II: 6.57 nM, I: 24.1 nM)

Hello, the source for this data is patent US9023865B2, in case you need it.
